# assay-info: in vivo
# particulars: Brachydanio rerio (zebrafish)
endpoint-name: LC50 at 72 h
# do not omit the unit; it follows the number

Returns the measured LC50 at 72 h for the input compound. Input: C=CC(=O)Nc1ncnc2ccc(Br)cc12 [compound 7a, N-(6-bromoquinazolin-4-yl)acrylamide]
0.48 µg/mL

----------
# assay-info: in vivo
# particulars: Brachydanio rerio (zebrafish)
endpoint-name: LC50 at 96 h (µg/mL)
One number for each entry, in µg/mL.

Find the recorded LC50 at 96 h belonging to C=CC(=O)Nc1ncnc2ccc(Br)cc12 [compound 7a, N-(6-bromoquinazolin-4-yl)acrylamide] and report it.
0.48
